Recorded inhibition ratio vs diclofenac for the following compounds
System: Mus musculus
test.description: Inhibitory effect on vascular permeability in mice [inhibitory rate of compound 100 mg/kg administered perorally]/[inhibitory rate of diclofenac-Na 25 mg/kg administered perorally]
Assay type: functional
Answer using only a numeral; do not append any unit.

compound="CCC1CCc2cc(CC(=O)O)cc(Cl)c2N1 (centres undefined)" study_target="Mus musculus" numeric_readout=1.54

Form: item O=C(O)Cc1cc(Cl)c2c(c1)CCC(C(=O)O)N2 (centres undefined) ; test system Mus musculus; inhibition ratio vs diclofenac: 0

Observed inhibition ratio vs diclofenac, Mus musculus, O=C(O)Cc1cc(Cl)c2c(c1)CCC(c1ccccc1)N2 (centres undefined) : 1.63

Lab entry: Mus musculus assay, compound O=C(O)Cc1cc(Cl)c2c(c1)CCC(C(F)(F)F)N2 (centres undefined) , inhibition ratio vs diclofenac = 1.48

Entry "O=C(O)Cc1cc(Cl)c2c(c1)CC[C@H](C(F)(F)F)N2" , Mus musculus data, inhibition ratio vs diclofenac value: 1.5

With Mus musculus as the test system, "O=C(O)Cc1cc(Cl)c2c(c1)CC[C@@H](C(F)(F)F)N2" showed inhibition ratio vs diclofenac of 1.62
